All values here come from patent US6495699B2.

Measured GelA (Ki,app), listed per entry.
experimental target: human progelatinase A (GelA), catalytic and fibronectin-like portion (Homo sapiens, UniProt P08253)
Construct: The catalytic and fibronectin-like portion of human progelatinase A (GelA) was expressed as a fusion protein with ubiquitin; ubiquitin; made in house; host or cells: E. coli
Sequence (P08253 110-465 limits assumed): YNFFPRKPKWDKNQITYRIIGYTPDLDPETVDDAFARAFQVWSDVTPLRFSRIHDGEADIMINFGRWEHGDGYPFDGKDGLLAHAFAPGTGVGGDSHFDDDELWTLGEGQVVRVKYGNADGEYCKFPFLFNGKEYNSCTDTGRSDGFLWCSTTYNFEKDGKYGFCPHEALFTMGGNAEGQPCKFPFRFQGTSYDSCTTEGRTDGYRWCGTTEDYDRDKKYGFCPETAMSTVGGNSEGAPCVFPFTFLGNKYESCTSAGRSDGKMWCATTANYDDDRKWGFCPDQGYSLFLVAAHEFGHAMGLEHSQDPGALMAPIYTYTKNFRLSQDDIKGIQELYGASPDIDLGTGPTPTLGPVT
assay notes: Fluorometric MCA-peptide hydrolysis assay, gelatinase A (GelA)
Assay type: biochemical
experimental conditions: apparent Ki; 10 μM MCA peptide substrate, 37° C., pH 7.5
Procedure: The catalytic and fibronectin-like portion of human progelatinase A (GelA) was expressed as a fusion protein with ubiquitin in E. Coli. Assays were carried out on autocatalytically activated material. […] The assay method was based on the hydrolysis of MCA-Pro-Leu-Gly-Leu-DPA-Ala-Arg-NH2 (American Peptide Co.) at 37° C. […] The fluorescence changes were monitored with a Perkin-Elmer LS-50B fluorimeter using an excitation wavelength of 328 nm and an emission wavelength of 393 nm. […]
Give the value in nM but do not write nM after it.

Worked cases, GelA (Ki,app) given:
1. O=C(O)C[C@H](C(=O)N[C@@H]1c2ccccc2C[C@H]1O)n1ccc(-c2ccc(-c3ccncc3)cc2)c1 = 6.62
2. CNC(=O)[C@@H](NC(=O)[C@@H](CC(=O)O)n1ccc(-c2ccc(-c3ccc(C#N)cc3)cc2)c1)C(C)(C)C = 0.041
3. CC(C)(C)[C@@H](CO)NC(=O)[C@@H]([C@H](CCCO)C(=O)O)n1ccc(-c2ccc(-c3ccccc3)cc2)c1 = 60
4. CC(C)(C)[C@H](NC(=O)C(CC(=O)O)c1ccsc1)C(=O)Nc1ccncc1 (stereo in doubt) = 157

Sample CCC[C@H](C(=O)O)[C@H](C(=O)N[C@H](CO)C(C)(C)C)n1ccc(-c2ccc(-c3ccc(C#N)cc3)cc2)c1 ; GelA (Ki,app) observed: 22

What the record says about CNC(=O)[C@@H](NC(=O)[C@@H](CC(=O)O)c1ccn(-c2ccc(F)cc2)c1)C(C)(C)C : GelA (Ki,app) is 4.3

Per the records, this molecule ( CNC(=O)[C@@H](NC(=O)[C@@H](CC(=O)O)n1ccc(-c2ccc(-c3ccc(C(N)=O)cc3)cc2)c1)C(C)(C)C [Example 5(e)] ) has GelA (Ki,app) equal to 0.109

* * *

What follows is a collection of Ki values obtained with Human matrilysin (Matr) (Homo sapiens).
Sequence (P09237 95-267): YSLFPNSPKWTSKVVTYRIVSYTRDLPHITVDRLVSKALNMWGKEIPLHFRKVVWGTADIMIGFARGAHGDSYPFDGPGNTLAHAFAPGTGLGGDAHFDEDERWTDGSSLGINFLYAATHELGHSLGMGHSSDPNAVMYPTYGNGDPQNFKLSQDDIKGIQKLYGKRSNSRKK
# number only, unit nM dropped from output

Study these solved cases before continuing.
1) CC(C)C[C@H](NC(=O)[C@@H](CC(=O)O)n1ccc(-c2ccc(-c3ccncc3)cc2)c1)c1ncc[nH]1.O=CO [Example 7(c), Formate Salt] = 5330
2) NC(=O)c1ccc(-c2ccc(-c3ccn([C@H](CC(=O)O)C(=O)N[C@H](CO)Cc4ccccc4)c3)cc2)cc1 [Example 4(b)] = 1520
3) O=C(O)C[C@H](C(=O)N[C@@H]1c2ccccc2C[C@H]1O)n1ccc(-c2ccc(-c3ccncc3)cc2)c1 [Example 6(a)] = 1500
4) CNC(=O)[C@@H](NC(=O)[C@@H](CC(=O)O)n1ccc(-c2ccc(-c3ccccc3)cc2)c1)C(C)(C)C [Example 1(e)] = 500

Could you now look at the following compound, please?
# lookup: O=C(O)C[C@H](C(=O)N[C@H](CO)Cc1ccccc1)n1ccc(-c2ccc(-c3ccccc3)cc2)c1 [1(a)] on Human matrilysin (Matr) (Homo sapiens), Ki = 1000
